These measurements were taken from patent US12065443B2.

Collected pIC50 values appear next to each entry.
target: SIK2 (Homo sapiens); construct: purchased ThermoFisher Scientific PV4792; assay: biochemical; details: 33P radioactive SIK kinase assay, AMARA peptide, 10 μM ATP
Sequence (Q9H0K1 whole entry): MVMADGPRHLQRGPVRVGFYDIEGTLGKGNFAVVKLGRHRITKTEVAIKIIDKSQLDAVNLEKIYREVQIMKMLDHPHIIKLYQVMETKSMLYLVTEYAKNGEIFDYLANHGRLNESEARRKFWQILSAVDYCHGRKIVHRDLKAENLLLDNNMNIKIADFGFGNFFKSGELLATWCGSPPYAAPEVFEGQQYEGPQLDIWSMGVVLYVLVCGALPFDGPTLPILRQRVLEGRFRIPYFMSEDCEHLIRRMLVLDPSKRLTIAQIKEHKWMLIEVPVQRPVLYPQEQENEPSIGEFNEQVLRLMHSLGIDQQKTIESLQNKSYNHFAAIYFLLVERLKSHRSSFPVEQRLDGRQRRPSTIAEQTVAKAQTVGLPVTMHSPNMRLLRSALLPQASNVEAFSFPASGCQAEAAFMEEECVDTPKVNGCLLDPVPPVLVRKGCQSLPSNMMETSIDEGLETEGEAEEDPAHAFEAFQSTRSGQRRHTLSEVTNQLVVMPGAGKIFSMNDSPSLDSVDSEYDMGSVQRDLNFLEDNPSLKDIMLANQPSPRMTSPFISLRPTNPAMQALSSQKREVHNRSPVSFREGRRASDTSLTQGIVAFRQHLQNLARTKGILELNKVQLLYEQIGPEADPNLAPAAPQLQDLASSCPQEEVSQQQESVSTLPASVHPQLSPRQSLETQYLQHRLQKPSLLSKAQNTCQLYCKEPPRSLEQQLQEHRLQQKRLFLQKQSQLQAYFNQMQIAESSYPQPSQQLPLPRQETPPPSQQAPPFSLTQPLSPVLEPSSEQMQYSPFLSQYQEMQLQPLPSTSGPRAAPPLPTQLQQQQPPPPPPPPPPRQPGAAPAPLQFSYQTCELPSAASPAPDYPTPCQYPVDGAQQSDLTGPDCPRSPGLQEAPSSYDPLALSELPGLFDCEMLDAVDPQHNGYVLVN
pIC50: −log10 of the molar value.
Reported metric: pIC50

{"Compound": "COc1cc(-n2cnc3cc(-c4cnn(C5COC5)c4)ccc32)cc(OC)c1C(=O)NCC(F)(F)F [compound 85]", "Tgt": "SIK2 (Homo sapiens)", "Reading": "8.00 to 11.00"}
{"Compound": "CCn1cc(-c2ccc3c(c2)ncn3-c2cc(OC)c(C(=O)NCCC(F)(F)F)c(OC)c2)cn1 [compound 44]", "Tgt": "SIK2 (Homo sapiens)", "Reading": "7.00 to 8.00"}
{"Compound": "COc1cc(-c2cnc3cc(-c4cnn(C)c4)ccn23)cc(OC)c1C(=O)NCC(F)(F)F [Cpd 88]", "Tgt": "SIK2 (Homo sapiens)", "Reading": "8.00 to 11.00"}
{"Compound": "COc1cc(-n2cnc3cc(-c4ccc(C#N)nc4)ccc32)cc(OC)c1C(=O)NCC(F)(F)F [compound 36]", "Tgt": "SIK2 (Homo sapiens)", "Reading": "7.00 to 8.00"}
{"Compound": "CCn1cc(-c2ccc3c(c2)ncn3-c2cc(OC)c(C(=O)NC3CCC3)c(OC)c2)cn1 [compound 26]", "Tgt": "SIK2 (Homo sapiens)", "Reading": "7.00 to 8.00"}
